Cited source: patent US20200316090A1

assay: Tissue distribution of SDC-TRAP and degradation products in tumor-bearing mice (plasma, tumor, heart); type: in vivo, Female SCID Mouse (H1975); conditions: female, SCID, mouse, in vivo; read-out: Plasma Conc.

MOLECULE: CCNC(=O)c1nnc(-c2cc(C(C)C)c(O)cc2O)n1-c1ccc(C(=O)N2CCN(c3cc(C)c(OC(=O)Nc4cccc5c4CN(C4CCC(=O)NC4=O)C5=O)c(C)c3)CC2)cc1 (stereo not shown)
RESULT_UNITS: nM
concentration at 48 h: 241

* * *

Listed here: items and their measured Mouse (10 μM) % Remaining 1 h (37° C.) *.
assay: Mouse plasma stability (Examples 16-18); assay type: in vitro ADME; settings: 10 μM, 1 h, 37° C.; sum of both peaks of parent chromatogram
QUANTITY: Mouse (10 μM) % Remaining 1 h (37° C.) * (%)

MOLECULE: CCc1c2c(nc3ccc(OC(=O)N4CCN(Cc5ccc(-n6c(O)nnc6-c6cc(C(C)C)c(O)cc6O)cc5)CC4)cc13)-c1cc3c(c(=O)n1C2)COC(=O)C3(O)CC (stereo not drawn)
RESULT_UNITS: %
VALUE: 57
--
MOLECULE: CCc1c2c(nc3ccc(OC(=O)N(C)CCCCN4CCN(Cc5ccc(-n6c(O)nnc6-c6cc(C(C)C)c(O)cc6O)cc5)CC4)cc13)-c1cc3c(c(=O)n1C2)COC(=O)C3(O)CC (stereo not drawn)
RESULT_UNITS: %
VALUE: 61
--
MOLECULE: CCc1c2c(nc3ccc(O)cc13)-c1cc3c(c(=O)n1C2)COC(=O)C3(CC)OC(=O)N(C)CCOCCn1ccc2cc(-n3c(O)nnc3-c3cc(C(C)C)c(O)cc3O)ccc21 (stereo not drawn)
RESULT_UNITS: %
VALUE: 95
--
MOLECULE: CCc1c2c(nc3ccc(OC(=O)N(C)CCOCCn4ccc5cc(-n6c(O)nnc6-c6cc(C(C)C)c(O)cc6O)ccc54)cc13)-c1cc3c(c(=O)n1C2)COC(=O)C3(O)CC (stereo not drawn)
RESULT_UNITS: %
VALUE: 47
--
MOLECULE: CCc1c2c(nc3ccc(OC(=O)N4CCN(c5ccc(-n6c(O)nnc6-c6cc(C(C)C)c(O)cc6O)cc5)CC4)cc13)-c1cc3c(c(=O)n1C2)COC(=O)C3(O)CC (stereo not drawn)
RESULT_UNITS: %
VALUE: 45
--
MOLECULE: CCc1c2c(nc3ccc(O)cc13)-c1cc3c(c(=O)n1C2)COC(=O)[C@]3(O)CC [SN-38, reference compound]
RESULT_UNITS: %
VALUE: 64

* * *

assay: Artificial membrane permeability assay (PAMPA); conditions: Permeability (10^−6 cm/s), 5 h incubation, peak area used in place of concentration, first table
QUANTITY: Papp at 5 h (×10⁻⁶ cm/s)

MOLECULE: CC(C)c1cc(-c2nnc(O)n2-c2ccc(CN3CCN(C(=O)CCn4cc(F)c(=O)[nH]c4=O)CC3)cc2)c(O)cc1O
VALUE: 0.0124
//
MOLECULE: CC(=O)O[C@@]12CO[C@@H]1C[C@H](O)[C@@]1(C)C(=O)[C@H](O)C3=C(C)[C@@H](OC(=O)[C@H](O)[C@@H](NC(=O)OC(C)(C)C)c4ccccc4)C[C@@](O)([C@@H](OC(=O)c4ccccc4)[C@H]21)C3(C)C [Docetaxel, docetaxel, reference compound]
VALUE: 0.05
//
MOLECULE: COc1cccc2c1C(=O)c1c(O)c3c(c(O)c1C2=O)C[C@@](O)(C(=O)CO)C[C@@H]3O[C@H]1C[C@H](N)[C@H](O)[C@H](C)O1 [Doxorubicin, doxorubicin, reference compound]
VALUE: 0.0033
